- targetOfAssay: human isoform h5-HT4e (Homo sapiens, UniProt Q13639)
- Construct: expressed in transfected cells; membrane preparation
- Sequence (Q13639 1-378 isoform Q13639-5): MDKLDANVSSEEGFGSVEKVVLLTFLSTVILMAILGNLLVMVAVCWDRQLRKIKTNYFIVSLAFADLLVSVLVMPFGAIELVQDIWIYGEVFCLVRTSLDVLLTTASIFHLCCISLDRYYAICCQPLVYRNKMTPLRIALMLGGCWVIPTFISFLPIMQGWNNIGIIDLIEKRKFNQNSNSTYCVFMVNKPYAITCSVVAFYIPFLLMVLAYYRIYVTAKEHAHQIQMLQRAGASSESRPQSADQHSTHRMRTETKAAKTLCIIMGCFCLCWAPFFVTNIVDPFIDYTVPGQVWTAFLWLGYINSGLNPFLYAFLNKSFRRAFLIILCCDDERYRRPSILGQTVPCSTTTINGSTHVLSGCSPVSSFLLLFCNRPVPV
- assaySummary: displacement of radioligand [3H]-GR113808 in rat glial cells expressing h5-HT4e
- Type: binding
- testConditions: [3H]-GR113808 0.2 nM, membranes of rat glial cells expressing h5-HT4e, 25° C., 30 min; read-out: Ki
quantityName: Ki (nM)

[[record]]
chemsmiles = "CCOc1ccccc1NC(=O)OCCCN1CCN(c2ccccn2)CC1"
targetofassay = "human isoform h5-HT4e (Homo sapiens, UniProt Q13639)"
measuredresult = 9.9


(1) CCOc1ccccc1NC(=O)OCCCN1CCN(c2ccc(C)nn2)CC1
(2) COc1cccc(N2CCN(CCOC(=O)Nc3ccccc3OC)CC2)c1
Q) Recorded Ki values differ for 1 and 2 ; which one is higher? Write down the label of the entry you select.
A) 2
(2: 12.7 nM, 1: 3.9 nM)
